# credit: patent US20240335431A1

Target Entity: hERG (Homo sapiens (Human), UniProt Q12809)
Sequence (Q12809 whole entry): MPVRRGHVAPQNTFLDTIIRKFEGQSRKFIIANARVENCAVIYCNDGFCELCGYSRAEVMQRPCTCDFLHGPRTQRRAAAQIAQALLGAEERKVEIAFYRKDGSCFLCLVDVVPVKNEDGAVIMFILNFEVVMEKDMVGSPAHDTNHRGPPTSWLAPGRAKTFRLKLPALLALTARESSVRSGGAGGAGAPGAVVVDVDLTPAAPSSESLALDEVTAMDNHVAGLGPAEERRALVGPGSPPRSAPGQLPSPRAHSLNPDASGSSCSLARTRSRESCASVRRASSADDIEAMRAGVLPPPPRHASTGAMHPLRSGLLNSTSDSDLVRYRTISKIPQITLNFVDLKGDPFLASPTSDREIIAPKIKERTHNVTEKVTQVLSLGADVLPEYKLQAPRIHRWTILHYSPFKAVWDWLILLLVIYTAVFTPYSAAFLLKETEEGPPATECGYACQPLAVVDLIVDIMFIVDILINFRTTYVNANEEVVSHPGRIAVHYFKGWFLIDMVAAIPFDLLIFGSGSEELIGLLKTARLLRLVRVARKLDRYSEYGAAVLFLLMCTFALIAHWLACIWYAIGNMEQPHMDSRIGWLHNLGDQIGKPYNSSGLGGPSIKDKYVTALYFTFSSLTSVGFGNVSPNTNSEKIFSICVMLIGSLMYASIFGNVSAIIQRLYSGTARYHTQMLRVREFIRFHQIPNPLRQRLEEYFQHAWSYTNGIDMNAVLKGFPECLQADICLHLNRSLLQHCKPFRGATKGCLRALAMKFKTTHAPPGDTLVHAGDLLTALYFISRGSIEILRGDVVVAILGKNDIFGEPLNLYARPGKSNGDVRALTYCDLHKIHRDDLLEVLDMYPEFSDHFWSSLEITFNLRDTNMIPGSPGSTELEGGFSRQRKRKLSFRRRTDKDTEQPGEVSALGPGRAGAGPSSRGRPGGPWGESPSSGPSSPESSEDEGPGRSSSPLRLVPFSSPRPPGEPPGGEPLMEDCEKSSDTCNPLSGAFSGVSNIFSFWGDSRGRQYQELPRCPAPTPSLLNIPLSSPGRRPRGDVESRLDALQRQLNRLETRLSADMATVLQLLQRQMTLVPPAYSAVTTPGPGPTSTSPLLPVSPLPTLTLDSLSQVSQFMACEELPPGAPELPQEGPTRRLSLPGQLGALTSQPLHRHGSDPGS
Procedure Summary: hERG assay 1 (standard), SyncroPatch 384PE
Format: cell-based
Setup Conditions: CHO cells, room temperature, up to 40 uM
Property Name: IC50

// below: answered molecules
Cc1c(C(=O)C2CCN(C(=O)[C@H]3NC[C@@H]4C[C@@H]43)CC2)c2ccncc2n1-c1ccc(F)cc1C(=O)N(CC(F)(F)F)C(C)C (single isomer, unassigned) [Example 51-1]; > 40 µM
CC(C)c1ncsc1-c1cc(F)ccc1-n1cc(C(=O)C2CCN(C(=O)[C@H]3N[C@@H]4CC[C@H]3C4)CC2)c2ccncc21.O=CO; > 40 µM

API: the following record is the query input.
The molecule listed as CCN(C(=O)c1cc(F)ccc1-n1c(C)c(C(=O)C2CCN(C(=O)[C@@H]3CCC4(CC4)N3)CC2)c2ccncc21)C(C)C (single isomer, unassigned) [Example 49-2] shows IC50 equal to > 38 µM

====

Target Entity: hERG (Homo sapiens (Human))
Procedure Summary: hERG assay 1 (standard), SyncroPatch 384PE
Format: cell-based
Setup Conditions: CHO cells, room temperature, up to 40 uM
Property Name: IC50

// below: answered molecules
CC(C)N(C(=O)c1cc(F)ccc1-n1cc(C(=O)[C@H]2CCN(C(=O)[C@H]3N[C@@H]4CC[C@H]3C4)C2)c2ccncc21)C(C)C; > 40 µM
CCN(C(=O)c1cc(F)ccc1-n1c(C)c(C(=O)[C@@H]2CCN(C(=O)[C@@H]3CC[C@H](C)N3)[C@@H](C)C2)c2ccncc21)C(C)C (stereo in doubt); > 40 µM

API: the following record is the query input.
The molecule listed as CC(C)c1ncccc1-c1cc(F)ccc1-n1cc(C(=O)C2CN(C(=O)[C@H]3N[C@@H]4CC[C@H]3C4)C2)c2ccncc21 shows IC50 equal to > 40 µM

====

Entries and their measured pIC50 follow.
Test system: MV4;11 cells
Procedure Summary: Proliferation assay, MV4;11 (CellTiter-Glo, 7 days)
Assay type: cell-based, human
Setup Conditions: Homo sapiens, MV4-11, 168 h, read-out: MV-4-11 IC50
On this scale, pIC50 is minus log10 of a concentration expressed in M (mol/L).

CC(C)n1nccc1-c1cc(F)ccc1-n1cc(C(=O)C2CCN(C(=O)[C@H]3N[C@@H]4CC[C@H]3C4)CC2)c2ccncc21; 7.37

Simply: Cc1c(C(=O)C2CCN(C(=O)[C@H]3NC[C@@H]4C[C@@H]43)CC2)c2ccncc2n1-c1ccc(F)cc1C(=O)N(C(C)C)[C@H](C)C(F)(F)F (single isomer, unassigned) , MV4;11 cells, pIC50 = 7.29

Simply: CCN(C(=O)c1cc(F)ccc1-n1cc(C(=O)C2CN(C(=O)[C@H]3N[C@@H]4CC[C@H]3C4)C2)c2ccncc21)C(C)C , MV4;11 cells, pIC50 = 7.00
